src = patent US20230381333A1

EXPERIMENTAL_TARGET: human GCG receptor (human, UniProt P47871 26-477)
Sequence (P47871 26-477): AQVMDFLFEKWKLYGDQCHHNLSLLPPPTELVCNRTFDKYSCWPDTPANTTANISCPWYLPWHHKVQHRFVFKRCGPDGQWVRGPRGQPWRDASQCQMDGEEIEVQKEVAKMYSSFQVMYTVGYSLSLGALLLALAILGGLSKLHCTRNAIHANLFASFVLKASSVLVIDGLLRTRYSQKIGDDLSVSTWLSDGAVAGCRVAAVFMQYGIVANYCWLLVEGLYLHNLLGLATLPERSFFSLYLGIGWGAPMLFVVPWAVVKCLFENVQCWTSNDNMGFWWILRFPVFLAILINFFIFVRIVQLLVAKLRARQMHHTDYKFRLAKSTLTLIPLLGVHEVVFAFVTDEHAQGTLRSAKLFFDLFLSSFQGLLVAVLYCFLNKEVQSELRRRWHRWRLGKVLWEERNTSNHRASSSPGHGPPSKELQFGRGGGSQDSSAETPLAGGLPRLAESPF
TEST_NAME: cell-based or functional assay
Bridge positions count the residues as written; N and C are the ends. Square brackets hold non-standard residues; d marks the D form. Ends that are not written are not given here. * marks the point of attachment. Acetyl(2-(4-imidazolyl)) = O=C(Cc1c[nH]cn1)*; Aib = CC(C)(N)C(=O)O
# label = bin(measured In vitro activity compared to native-type peptide (%), vs Glucagon), where bins are bin 1: < 0.9%; bin 2: ≥ 0.9% and < 9%; bin 3: ≥ 9%

{"columns": ["BINDER", "ASSIGNED_CLASS"],
 "data": [
  ["Y[Aib]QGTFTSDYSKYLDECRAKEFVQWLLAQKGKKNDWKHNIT (bridge 16-20) [triple agonist of SEQ ID NO: 23]", "bin 3"],
  ["H[Aib]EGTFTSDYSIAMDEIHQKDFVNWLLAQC (bridge 16-20) [triple agonist of SEQ ID NO: 53]", "bin 2"],
  ["H[Aib]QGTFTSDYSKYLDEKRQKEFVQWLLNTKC (bridge 16-20) [triple agonist of SEQ ID NO: 58]", "bin 2"],
  ["{Acetyl(2-(4-imidazolyl))}-[Aib]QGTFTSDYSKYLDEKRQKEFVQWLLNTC (bridge 15-19) [triple agonist of SEQ ID NO: 81]", "bin 1"],
  ["H[Aib]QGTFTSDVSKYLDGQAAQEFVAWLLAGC [triple agonist of SEQ ID NO: 9]", "bin 1"],
  ["H[Aib]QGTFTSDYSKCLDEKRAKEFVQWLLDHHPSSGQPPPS (bridge 16-20) [triple agonist of SEQ ID NO: 65]", "bin 3"],
  ["Y[Aib]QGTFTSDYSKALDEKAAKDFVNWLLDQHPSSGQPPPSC (bridge 16-20) [triple agonist of SEQ ID NO: 102]", "bin 3"],
  ["{Acetyl(2-(4-imidazolyl))}-[Aib]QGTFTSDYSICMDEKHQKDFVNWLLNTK (bridge 15-19) [triple agonist of SEQ ID NO: 59]", "bin 1"],
  ["H[Aib]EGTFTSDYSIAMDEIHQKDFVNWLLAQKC (bridge 16-20) [triple agonist of SEQ ID NO: 79]", "bin 2"],
  ["H[Aib]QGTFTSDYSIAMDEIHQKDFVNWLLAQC (bridge 16-20) [triple agonist of SEQ ID NO: 55]", "bin 1"]
]}

Enquiry: Sort [Acetyl(2-(4-imidazolyl))]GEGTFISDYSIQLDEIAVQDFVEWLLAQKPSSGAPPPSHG [triple agonist of SEQ ID NO: 13] into one of the categories.
Return: bin 1

Enquiry: Any idea which band {Acetyl(2-(4-imidazolyl))}-[Aib]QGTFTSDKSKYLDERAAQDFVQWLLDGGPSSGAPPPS [triple agonist of SEQ ID NO: 62] is in?
Return: bin 1

Enquiry: Band assignment needed for H[Aib]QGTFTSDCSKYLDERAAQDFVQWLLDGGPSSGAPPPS [triple agonist of SEQ ID NO: 25] please.
Return: bin 1

Enquiry: Into which category would you place H[Aib]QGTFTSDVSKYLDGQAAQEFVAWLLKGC [triple agonist of SEQ ID NO: 8] ?
Return: bin 1

Enquiry: Consider {Acetyl(2-(4-imidazolyl))}-[Aib]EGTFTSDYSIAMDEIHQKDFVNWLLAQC (bridge 15-19) [triple agonist of SEQ ID NO: 83] . To which In vitro activity compared to native-type peptide (%), vs Glucagon class does it belong?
Return: bin 2

Enquiry: Where would [Acetyl(2-(4-imidazolyl))]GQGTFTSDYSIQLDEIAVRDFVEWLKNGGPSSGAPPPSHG [triple agonist of SEQ ID NO: 14] land among the classes by reported In vitro activity compared to native-type peptide (%), vs Glucagon?
Return: bin 1

Enquiry: For the record Y[Aib]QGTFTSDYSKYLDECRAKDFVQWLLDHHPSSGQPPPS (bridge 16-20) [triple agonist of SEQ ID NO: 66] , report the class its In vitro activity compared to native-type peptide (%), vs Glucagon corresponds to.
Return: bin 3

Enquiry: Band for H[Aib]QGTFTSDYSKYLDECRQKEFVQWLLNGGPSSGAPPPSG (bridge 16-20) [triple agonist of SEQ ID NO: 37] ?
Return: bin 2

Enquiry: Textbook exercise: identify the category of the binder given here, H[Aib]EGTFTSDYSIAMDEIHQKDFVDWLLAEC (bridge 16-20) [triple agonist of SEQ ID NO: 54] , according to its measured value.
Return: bin 2

Enquiry: Where would Y[Aib]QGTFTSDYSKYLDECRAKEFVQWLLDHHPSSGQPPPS (bridge 16-20) [triple agonist of SEQ ID NO: 21] land among the classes by reported In vitro activity compared to native-type peptide (%), vs Glucagon?
Return: bin 3

Enquiry: // bin(item) where item = Y[Aib]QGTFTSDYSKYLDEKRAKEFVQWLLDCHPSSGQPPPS (bridge 16-20) [triple agonist of SEQ ID NO: 97]
Return: bin 3
